The compounds listed here are annotated with their pEC50.
Target: hTLR7 (Homo sapiens, UniProt Q9NYK1)
Construct: expressed in transfected cells; host or cells: HEK-Blue hTLR cells
Sequence (Q9NYK1 27-1049): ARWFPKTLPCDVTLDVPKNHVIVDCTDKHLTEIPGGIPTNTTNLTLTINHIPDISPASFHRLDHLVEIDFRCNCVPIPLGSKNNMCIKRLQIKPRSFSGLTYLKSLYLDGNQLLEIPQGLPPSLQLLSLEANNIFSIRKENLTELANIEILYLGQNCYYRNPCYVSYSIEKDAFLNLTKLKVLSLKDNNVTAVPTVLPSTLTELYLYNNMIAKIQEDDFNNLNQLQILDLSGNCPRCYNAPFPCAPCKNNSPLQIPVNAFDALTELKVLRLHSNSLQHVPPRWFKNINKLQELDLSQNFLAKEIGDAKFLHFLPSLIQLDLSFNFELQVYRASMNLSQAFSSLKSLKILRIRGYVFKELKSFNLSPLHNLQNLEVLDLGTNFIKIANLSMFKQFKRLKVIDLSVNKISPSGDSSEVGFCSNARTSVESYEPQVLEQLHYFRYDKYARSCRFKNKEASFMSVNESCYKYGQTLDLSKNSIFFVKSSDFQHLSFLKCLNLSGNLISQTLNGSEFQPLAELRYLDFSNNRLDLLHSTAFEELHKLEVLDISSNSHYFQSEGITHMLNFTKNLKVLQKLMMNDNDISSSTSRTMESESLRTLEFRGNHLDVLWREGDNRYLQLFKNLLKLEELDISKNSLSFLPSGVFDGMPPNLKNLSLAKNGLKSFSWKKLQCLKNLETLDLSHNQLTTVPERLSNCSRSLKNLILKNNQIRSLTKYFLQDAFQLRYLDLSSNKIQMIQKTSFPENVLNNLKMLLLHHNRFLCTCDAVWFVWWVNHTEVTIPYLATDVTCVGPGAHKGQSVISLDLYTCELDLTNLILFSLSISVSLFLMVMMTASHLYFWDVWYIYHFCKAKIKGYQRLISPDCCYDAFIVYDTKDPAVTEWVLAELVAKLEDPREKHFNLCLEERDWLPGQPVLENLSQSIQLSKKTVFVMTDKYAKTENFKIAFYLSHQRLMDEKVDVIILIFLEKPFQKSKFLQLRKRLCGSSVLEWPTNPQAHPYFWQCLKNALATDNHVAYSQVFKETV
Test: agonistic activity on hTLR7, HEK-Blue hTLR cells, SEAP reporter (QUANTI-Blue)
Type: cell-based
Details: HEK-Blue hTLR cells, SEAP reporter, OD650, cultured 1 day; read-out: TLR 7 EC50
API: returns pEC50 as number; meaning -log10 of concentration in mol/L.

compound	target.entity	assay.result
CCOCc1nc2c(N)nc3ccccc3c2n1C[C@@H](C)O[P@@](=O)(N[C@@H](C)C(=O)OCc1ccccc1)Oc1ccccc1 (single isomer, unassigned) [Example 16A]	hTLR7 (Homo sapiens, UniProt Q9NYK1)	5.23

Next:
The value of pEC50 measured for the compound CCOCc1nc2c(N)nc3ccccc3c2n1C[C@@H](C)O (single isomer, unassigned) turned out to be 5.90

Values were extracted from patent US20230008368A1.
